- Test system: biotinyl-Trp-oxazolone
- assay comment: self-aminoacylation, catalytic enhancement (BWO) (fold over background); higher = more active; k-Seq, kA / k0A0; sequences stand for … in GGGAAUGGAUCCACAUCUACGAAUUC…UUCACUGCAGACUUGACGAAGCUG
Fewer inactive variants are shown than the library holds.
readout name: self-aminoacylation

| entry sequence | observed result |
| --- | --- |
| AUUCACCUAGGUUAUAGGGUG [Fam2.2 aminoacylation ribozyme variant] | 3.5 |
| CUACUUCAGACAAUCGGACUG [Fam1A.1 aminoacylation ribozyme variant] | 0.652 |
| AAGUUCGCUAAUAGUCGGAAG [Fam3.1 aminoacylation ribozyme variant] | 1.07 |
| AUUACCUUGGUCAUCAAGUGA [Fam2.1 aminoacylation ribozyme variant] | 4.02 |
| AUUCGCCUAGGUCAUCGGAUG [Fam2.2 aminoacylation ribozyme variant] | 0.704 |
| CUCCUUCAUACAAUCGGUCUG [Fam1A.1 aminoacylation ribozyme variant] | 0.794 |
| AUAACCCUGUUCAUCGAGUGA [Fam2.1 aminoacylation ribozyme variant] | 4.29 |
| AUUCCCCUUGGUCAUCGGGUG [Fam2.2 aminoacylation ribozyme variant] | 18.9 |
| CGACCCUUCAAGCAAUCGGUC [Fam1B.1 aminoacylation ribozyme variant] | 3.13 |
